target: TIE2 (Homo sapiens)
Sequence (Q02763 23-1124): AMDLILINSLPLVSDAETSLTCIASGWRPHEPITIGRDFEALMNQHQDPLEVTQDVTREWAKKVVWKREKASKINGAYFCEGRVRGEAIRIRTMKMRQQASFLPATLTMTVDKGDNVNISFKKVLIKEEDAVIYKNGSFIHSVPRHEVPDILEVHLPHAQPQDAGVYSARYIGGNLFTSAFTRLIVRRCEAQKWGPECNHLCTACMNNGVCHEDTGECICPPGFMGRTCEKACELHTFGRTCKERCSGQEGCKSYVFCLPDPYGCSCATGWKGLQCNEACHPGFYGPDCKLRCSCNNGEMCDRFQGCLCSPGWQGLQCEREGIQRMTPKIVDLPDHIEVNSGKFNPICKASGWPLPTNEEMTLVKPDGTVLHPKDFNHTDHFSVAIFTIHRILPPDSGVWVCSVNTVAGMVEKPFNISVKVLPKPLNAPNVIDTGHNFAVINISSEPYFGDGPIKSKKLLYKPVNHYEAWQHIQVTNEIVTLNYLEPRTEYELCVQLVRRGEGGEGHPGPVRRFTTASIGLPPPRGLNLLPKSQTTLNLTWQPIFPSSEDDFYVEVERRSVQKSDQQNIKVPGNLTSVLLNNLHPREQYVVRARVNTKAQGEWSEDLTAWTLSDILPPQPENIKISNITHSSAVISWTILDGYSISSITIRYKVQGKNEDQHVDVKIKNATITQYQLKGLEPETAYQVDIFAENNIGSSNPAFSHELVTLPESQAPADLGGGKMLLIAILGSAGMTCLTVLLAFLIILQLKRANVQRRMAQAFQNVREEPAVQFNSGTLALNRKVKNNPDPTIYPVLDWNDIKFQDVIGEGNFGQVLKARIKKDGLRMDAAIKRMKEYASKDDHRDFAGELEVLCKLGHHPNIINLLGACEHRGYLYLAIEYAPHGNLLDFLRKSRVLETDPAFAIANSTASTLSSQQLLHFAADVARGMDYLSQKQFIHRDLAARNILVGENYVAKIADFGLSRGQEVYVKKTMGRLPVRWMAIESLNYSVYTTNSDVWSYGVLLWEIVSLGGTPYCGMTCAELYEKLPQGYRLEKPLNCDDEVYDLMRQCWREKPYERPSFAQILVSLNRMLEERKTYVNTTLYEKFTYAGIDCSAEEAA
assay_endpoint: IC50 (nM)

- COCCNCc1ccc(-c2cc3nccc(Oc4ccc(NC(=O)C5(C(=O)Nc6ccc(F)cc6)CC5)cc4F)c3s2)nc1 [MGCD516, Sitravatinib]: 274

---

biological target: PYK2 (Homo sapiens)
Sequence (Q14289 whole entry): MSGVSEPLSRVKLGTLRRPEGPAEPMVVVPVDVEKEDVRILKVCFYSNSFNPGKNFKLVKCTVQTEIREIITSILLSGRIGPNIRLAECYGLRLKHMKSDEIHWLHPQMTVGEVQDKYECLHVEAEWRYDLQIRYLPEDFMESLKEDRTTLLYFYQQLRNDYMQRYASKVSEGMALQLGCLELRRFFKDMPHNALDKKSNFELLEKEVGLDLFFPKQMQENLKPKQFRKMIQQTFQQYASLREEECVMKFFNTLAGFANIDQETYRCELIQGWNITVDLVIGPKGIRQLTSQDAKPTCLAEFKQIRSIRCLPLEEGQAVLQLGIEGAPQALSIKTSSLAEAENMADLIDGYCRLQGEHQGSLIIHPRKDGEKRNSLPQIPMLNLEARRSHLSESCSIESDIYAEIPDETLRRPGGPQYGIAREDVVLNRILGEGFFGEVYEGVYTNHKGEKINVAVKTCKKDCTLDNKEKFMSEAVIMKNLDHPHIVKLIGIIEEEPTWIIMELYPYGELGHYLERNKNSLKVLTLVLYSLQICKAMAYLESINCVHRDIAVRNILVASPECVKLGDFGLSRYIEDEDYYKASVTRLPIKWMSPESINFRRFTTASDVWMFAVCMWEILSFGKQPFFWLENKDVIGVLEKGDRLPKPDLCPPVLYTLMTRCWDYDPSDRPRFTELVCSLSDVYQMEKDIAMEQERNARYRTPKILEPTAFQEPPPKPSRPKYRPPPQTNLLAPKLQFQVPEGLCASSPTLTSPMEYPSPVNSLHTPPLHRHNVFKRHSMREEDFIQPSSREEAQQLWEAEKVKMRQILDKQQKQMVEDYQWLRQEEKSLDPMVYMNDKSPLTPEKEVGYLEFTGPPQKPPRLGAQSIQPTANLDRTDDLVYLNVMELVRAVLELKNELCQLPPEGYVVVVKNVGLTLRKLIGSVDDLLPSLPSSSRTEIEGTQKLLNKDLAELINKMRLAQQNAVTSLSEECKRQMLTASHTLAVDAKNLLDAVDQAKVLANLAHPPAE
assay_endpoint: IC50 (nM)

* COCCNCc1ccc(-c2cc3nccc(Oc4ccc(NC(=O)C5(C(=O)Nc6ccc(F)cc6)CC5)cc4F)c3s2)nc1 | 364

---

target: UniProtKB O60674
Sequence (O60674 whole entry): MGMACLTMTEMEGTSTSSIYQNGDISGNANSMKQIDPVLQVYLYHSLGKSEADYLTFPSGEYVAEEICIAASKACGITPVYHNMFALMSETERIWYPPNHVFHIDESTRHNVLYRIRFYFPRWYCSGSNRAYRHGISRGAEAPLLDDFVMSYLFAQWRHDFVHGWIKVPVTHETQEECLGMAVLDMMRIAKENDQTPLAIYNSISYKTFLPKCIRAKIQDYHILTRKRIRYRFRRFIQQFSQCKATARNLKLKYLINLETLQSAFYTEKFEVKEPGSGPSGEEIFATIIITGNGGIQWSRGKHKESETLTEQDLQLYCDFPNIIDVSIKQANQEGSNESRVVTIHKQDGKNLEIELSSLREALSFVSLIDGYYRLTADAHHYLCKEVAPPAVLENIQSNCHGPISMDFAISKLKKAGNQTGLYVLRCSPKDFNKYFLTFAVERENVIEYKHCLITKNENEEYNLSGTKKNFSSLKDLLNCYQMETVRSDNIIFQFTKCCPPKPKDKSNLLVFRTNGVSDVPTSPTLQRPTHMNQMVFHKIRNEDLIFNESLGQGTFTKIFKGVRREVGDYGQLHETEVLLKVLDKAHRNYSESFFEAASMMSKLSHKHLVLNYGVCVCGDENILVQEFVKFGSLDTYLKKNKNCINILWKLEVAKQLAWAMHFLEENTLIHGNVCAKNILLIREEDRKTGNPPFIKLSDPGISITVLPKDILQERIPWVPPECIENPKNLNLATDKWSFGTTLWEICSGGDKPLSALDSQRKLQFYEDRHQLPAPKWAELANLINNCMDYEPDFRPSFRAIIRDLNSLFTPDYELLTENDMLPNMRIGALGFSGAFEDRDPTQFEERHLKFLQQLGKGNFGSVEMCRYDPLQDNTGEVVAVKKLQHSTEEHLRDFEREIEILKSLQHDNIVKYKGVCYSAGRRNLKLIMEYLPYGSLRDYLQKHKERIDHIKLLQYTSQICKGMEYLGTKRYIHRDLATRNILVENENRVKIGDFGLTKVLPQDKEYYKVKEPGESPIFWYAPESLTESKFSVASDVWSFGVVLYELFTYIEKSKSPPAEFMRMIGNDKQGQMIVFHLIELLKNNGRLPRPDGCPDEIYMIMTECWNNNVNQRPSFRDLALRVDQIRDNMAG
pIC50: −log10 of the molar value.
assay_endpoint: pIC50

- COCCNCc1ccc(-c2cc3nccc(Oc4ccc(NC(=O)C5(C(=O)Nc6ccc(F)cc6)CC5)cc4F)c3s2)nc1: < 5.00
